- system_under_test: HLA-A*02:12
- assay_procedure: IEDB peptide-MHC binding, purified MHC/direct/fluorescence; filed as Kd, often an IC50 or EC50 that approximates it; bounds were set here for any values at or beyond the usual limits of such assays
- cond: source organism: Vibrio parahaemolyticus AQ3810
pKd: −log10 of the molar value.
parameter_measured: pKd

Looking for the measured pKd of "EPFLVQFWI" , can you help?
≤ 4.70

---

- system_under_test: HLA-A*02:01
- assay_procedure: IEDB peptide-MHC binding, purified MHC/competitive/fluorescence; filed as Kd, often an IC50 or EC50 that approximates it; bounds were set here for any values at or beyond the usual limits of such assays
- cond: source organism: Salmonella enterica subsp. enterica serovar Typhi
parameter_measured: pKd
In simple prose, pKd is minus the logarithm base ten of a concentration in moles per litre.

Value wanted: pKd (HLA-A*02:01) of entry "KQFCLSILL"
8.54

---

- system_under_test: HLA-C*14:02
- assay_procedure: IEDB peptide-MHC binding, purified MHC/direct/fluorescence; filed as Kd, often an IC50 or EC50 that approximates it; bounds were set here for any values at or beyond the usual limits of such assays
- cond: source organism: Yersinia pseudotuberculosis IP 31758
parameter_measured: pKd
In simple prose, pKd is minus the logarithm base ten of a concentration in moles per litre.

Looking for the measured pKd of "FQWWRSHPL" , can you help?
6.63

---

- system_under_test: HLA-A*26:01
- assay_procedure: IEDB peptide-MHC binding, purified MHC/direct/fluorescence; filed as Kd, often an IC50 or EC50 that approximates it; bounds were set here for any values at or beyond the usual limits of such assays
- cond: source organism: Vibrio parahaemolyticus AQ3810
pKd: −log10 of the molar value.
parameter_measured: pKd

Looking for the measured pKd of "EPFLVQFWI" , can you help?
≤ 4.70

---

- system_under_test: HLA-B*15:01
- assay_procedure: IEDB peptide-MHC binding, purified MHC/direct/fluorescence; filed as Kd, often an IC50 or EC50 that approximates it; bounds were set here for any values at or beyond the usual limits of such assays
- cond: source organism: Cryptosporidium parvum Iowa II
parameter_measured: Kd

Looking for the measured Kd of "TVFRNQNRV" , can you help?
≥ 20 µM

---

- system_under_test: HLA-B*07:02
- assay_procedure: IEDB peptide-MHC binding, purified MHC/direct/fluorescence; filed as Kd, often an IC50 or EC50 that approximates it; bounds were set here for any values at or beyond the usual limits of such assays
- cond: source organism: Pseudomonas aeruginosa UCBPP-PA14
pKd: −log10 of the molar value.
parameter_measured: pKd

Value wanted: pKd (HLA-B*07:02) of entry "AYGSRFHEW"
≤ 4.70

---

- system_under_test: HLA-A*68:02
- assay_procedure: IEDB peptide-MHC binding, purified MHC/competitive/fluorescence; filed as Kd, often an IC50 or EC50 that approximates it; bounds were set here for any values at or beyond the usual limits of such assays
- cond: source organism: Escherichia coli 536
pKd: −log10 of the molar value.
parameter_measured: pKd

Looking for the measured pKd of "VMAASGAPF" , can you help?
≤ 4.70

---

- system_under_test: HLA-B*27:03
- assay_procedure: IEDB peptide-MHC binding, purified MHC/competitive/fluorescence; filed as Kd, often an IC50 or EC50 that approximates it; bounds were set here for any values at or beyond the usual limits of such assays
- cond: source organism: Campylobacter jejuni subsp. jejuni NCTC 11168 = ATCC 700819
pKd: −log10 of the molar value.
parameter_measured: pKd

Looking for the measured pKd of "AVGFFPTGV" , can you help?
≤ 4.70
